Parameter minimal effective concentration: see the listing below.
# Test system: MDA-MB-468 cells
# method summary: Cell viability assay: MTT test
# Type: cell-based
# condition: Homo sapiens, MDA-MB-468, 72 h treatment, tested at 1, 5, 10, 20, 40 µM, p<0.05 vs untreated, read-out: concentration(s) giving significant reduction in the viability of MDA-MB-468 cells

Check out these entries, answers already filled in.
molecule: CC12CCOC1=C([Si](C)(C)C)C(=O)O2 (centres unmarked)
assay metric: minimal effective concentration
value reported: ≥ 5 µM

molecule: CC1(C)CC2(C)OC(=O)C(c3ccccc3)=C2O1 (centres unmarked)
assay metric: minimal effective concentration
value reported: ≥ 5 µM

molecule: CC1(C)CC2(c3ccccc3)OC(=O)C([Si](C)(C)C)=C2O1 (centres unmarked)
assay metric: minimal effective concentration
value reported: 10 to 40 µM

molecule: CC1(C)CC2(C)OC(=O)C([Si](C)(C)C)=C2O1 (centres unmarked)
assay metric: minimal effective concentration
value reported: ≥ 1 µM

Now take the following molecule into account.
The molecule listed as CC1(C)CC2(c3ccccc3)OC(=O)C=C2O1 (centres unmarked) has a reported minimal effective concentration of 10 to 40 µM
